Molecular target: CDK2 cyA (Homo sapiens, UniProt P24941)
Test: CDK2 cyA IMAP
Assay type: biochemical
Details: Table 2; read-out: CDK2cyA IMAP/ IC50
pIC50: −log10 of the molar value.
The compounds listed here are annotated with their pIC50.

The following compounds have reported results that may help.
compound	measured
CCC(C)Nc1nccc(-c2c[nH]nc2C(C)C)n1 (stereo not shown) [Example 171]	> 6.30
CC(C)c1n[nH]cc1-c1ccnc(NCc2ccccc2OC(F)(F)F)n1 [Example 158]	≤ 4.82

// sample Cc1n[nH]cc1-c1ccnc(NCCOc2ccccc2)n1 [Example 98] , its pIC50 was > 4.82

----------
IC50 reference
Target: hCDK1/B (Homo sapiens, UniProt P06493)
Sequence (P06493 whole entry): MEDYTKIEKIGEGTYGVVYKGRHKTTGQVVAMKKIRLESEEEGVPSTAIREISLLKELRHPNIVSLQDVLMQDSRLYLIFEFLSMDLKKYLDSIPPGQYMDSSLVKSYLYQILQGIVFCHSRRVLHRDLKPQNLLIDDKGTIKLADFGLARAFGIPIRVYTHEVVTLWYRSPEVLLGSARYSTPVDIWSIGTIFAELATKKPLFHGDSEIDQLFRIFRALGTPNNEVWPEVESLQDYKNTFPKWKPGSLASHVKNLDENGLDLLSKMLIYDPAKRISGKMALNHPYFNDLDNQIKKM
Sequence (P14635 whole entry partner): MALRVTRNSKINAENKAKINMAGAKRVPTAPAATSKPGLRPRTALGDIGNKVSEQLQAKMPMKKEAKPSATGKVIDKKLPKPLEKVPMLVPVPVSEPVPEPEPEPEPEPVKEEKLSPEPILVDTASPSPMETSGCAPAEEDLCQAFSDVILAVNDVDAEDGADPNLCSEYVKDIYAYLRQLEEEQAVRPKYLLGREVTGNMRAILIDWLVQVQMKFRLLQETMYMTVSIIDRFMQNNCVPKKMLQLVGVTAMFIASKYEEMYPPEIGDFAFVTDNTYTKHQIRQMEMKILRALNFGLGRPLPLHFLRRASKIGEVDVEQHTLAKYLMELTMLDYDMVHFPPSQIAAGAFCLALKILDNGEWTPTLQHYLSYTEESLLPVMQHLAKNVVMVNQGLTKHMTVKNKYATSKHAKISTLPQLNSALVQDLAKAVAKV
Assay: hCDK1/B
Assay type: biochemical
Conditions: Table 1

Would you please look over these solved cases?
molecule	IC50
CCCCNc1cc(-c2cn[nH]c2C(C)C)ccn1 [Example 10]	< 5 µM
Cc1ccccc1CNc1cc(-c2cn[nH]c2C2CCCC2)ccn1 [Example 60]	< 5 µM
Cc1cccc(CNc2cc(-c3cn[nH]c3C3CCCC3)ccn2)c1 [Example 62]	< 5 µM

Item c1ccc2c(c1)CC(Nc1cc(-c3cn[nH]c3C3CC3)ccn1)C2 [Example 69] was tested on hCDK1/B (Homo sapiens, UniProt P06493); the reported IC50 is < 1 µM

Lab note: molecule Cc1ccccc1CNc1cc(-c2cn[nH]c2C2CC2)ccn1 [Example 68] tested on hCDK1/B (Homo sapiens, UniProt P06493); recorded IC50 was < 5 µM

----------
Measured pIC50 of individual entries
Molecular target: UniProt P11802
Experiment: CDK4 HTRF
Format: biochemical
Details: Table 2; read-out: CDK4 HTRF/ IC50
pIC50: −log10 of the molar value.

Some entries whose results are on file:
molecule	pIC50
Cc1n[nH]cc1-c1ccnc(NC2CCCNC2)n1 (stereo not shown) [Example 138]	> 6.00
CC(CCc1ccccc1)Nc1nccc(-c2c[nH]nc2C(C)C)n1 (stereo not shown) [Example 155]	> 6.00

Query molecule follows.
response.value for Cc1n[nH]cc1-c1ccnc(NCc2ccccn2)n1 [Example 126] (field: pIC50) = > 4.82

----------
Property: pIC50; scope: individual compounds
Target: CDK2 cyA (Homo sapiens)
Test: CDK2 cyA IMAP
Format: biochemical
Settings: Table 2; read-out: CDK2cyA IMAP/ IC50
pIC50: −log10 of the molar value.

compound	target-or-system	pIC50
Cc1n[nH]cc1-c1ccnc(NCCCN(C)C)n1	CDK2 cyA (Homo sapiens)	≤ 4.82
Cc1n[nH]cc1-c1ccnc(NCC2CCCCC2)n1	CDK2 cyA (Homo sapiens)	> 5.00
Cc1n[nH]cc1-c1ccnc(NC2CCN(c3ccccc3)CC2)n1	CDK2 cyA (Homo sapiens)	> 5.30
CC(C)c1n[nH]cc1-c1ccnc(NC2CCN(Cc3ccccc3)CC2)n1	CDK2 cyA (Homo sapiens)	> 6.00
Cc1ccccc1CNc1nccc(-c2c[nH]nc2C)n1	CDK2 cyA (Homo sapiens)	> 5.00

Item: `CC(C)c1nn(C)cc1-c1ccnc(NC2CCN(C)CC2)n1` | pIC50: > 5.30

// `COCCNc1nccc(-c2c[nH]nc2C)n1` : pIC50 value = ≤ 4.82

Entry COCC(C)Nc1nccc(-c2c[nH]nc2C(C)C)n1 (centres unmarked) , pIC50 reported as > 6.00

The compound `COc1cccc(CNc2nccc(-c3c[nH]nc3C)n2)c1` showed pIC50 equal to ≤ 4.82

----------
Target: CDK4 (Homo sapiens, UniProt P11802)
Sequence (P11802 whole entry): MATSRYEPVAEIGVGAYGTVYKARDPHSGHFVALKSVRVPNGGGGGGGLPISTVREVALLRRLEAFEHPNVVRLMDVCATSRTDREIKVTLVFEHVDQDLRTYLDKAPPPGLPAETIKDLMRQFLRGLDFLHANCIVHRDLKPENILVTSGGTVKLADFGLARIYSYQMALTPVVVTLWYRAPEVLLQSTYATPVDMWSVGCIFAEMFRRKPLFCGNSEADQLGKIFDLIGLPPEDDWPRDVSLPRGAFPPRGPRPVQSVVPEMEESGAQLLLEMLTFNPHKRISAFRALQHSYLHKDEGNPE
Sequence (P24385 whole entry partner): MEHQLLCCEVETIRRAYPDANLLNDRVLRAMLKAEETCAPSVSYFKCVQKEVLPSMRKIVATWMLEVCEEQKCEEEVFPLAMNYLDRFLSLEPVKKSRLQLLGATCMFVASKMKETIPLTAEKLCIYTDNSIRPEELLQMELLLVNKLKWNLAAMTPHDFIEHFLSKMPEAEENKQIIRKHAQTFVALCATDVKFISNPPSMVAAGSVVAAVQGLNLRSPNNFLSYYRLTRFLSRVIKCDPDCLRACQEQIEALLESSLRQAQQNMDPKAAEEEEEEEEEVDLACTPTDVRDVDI
Assay: CDK4 HTRF
Assay type: biochemical
Conditions: Table 2; read-out: CDK4 HTRF/ IC50
readout-kind: IC50

Solved cases (4 shown):
compound	IC50
COc1ccccc1CNc1nccc(-c2c[nH]nc2C)n1	< 5 µM
CC(C)c1n[nH]cc1-c1ccnc(NCCN2CCCCC2)n1	< 0.5 µM
CCC(C)Nc1nccc(-c2c[nH]nc2C)n1 (centres unmarked)	< 1 µM
CCN(CC)CCNc1nccc(-c2c[nH]nc2C(C)C)n1	< 5 µM

Please find the next compound below.
The compound listed as `Cc1cnc(NC2CCN(C)CC2)nc1-c1c[nH]nc1C(C)C` shows IC50 equal to < 0.5 µM

----------
Molecular target: UniProt:P11802
Assay: CDK4 HTRF
Type: biochemical
Details: Table 2; read-out: CDK4 HTRF/ IC50
pIC50: −log10 of the molar value.
Documented pIC50 across a set of compounds

Short answer for `CC(C)c1n[nH]cc1-c1ccnc(NC2CCN(C(=O)OC(C)(C)C)CC2)n1` : pIC50 was > 7.30

Noted for CC(C)c1n[nH]cc1-c1ccnc(NC2CCCCC2C)n1 (stereo not drawn) : its pIC50 reads > 7.00

# compound `CC(C)c1n[nH]cc1-c1ccnc(N[C@@H]2CCCc3ccccc32)n1` ; its pIC50 = > 7.30

pIC50 measured on CC(C)c1n[nH]cc1-c1ccnc(NC2CCCc3ccccc32)n1 (stereo not drawn) = > 7.30

Entry under test: `Cc1n[nH]cc1-c1ccnc(NCCN(C)C)n1` . Its pIC50 was > 5.00

----------
Molecular target: UniProt:P11802
Test: CDK4 HTRF
Format: biochemical
Details: Table 2; read-out: CDK4 HTRF/ IC50
pIC50: −log10 of the molar value.
readout-kind: pIC50

Example cases with answers are listed next.
molecule	pIC50
CC(C)c1n[nH]cc1-c1ccnc(NC2CCN(c3ccccc3)CC2)n1 [Example 172]	> 7.30
Cc1n[nH]cc1-c1ccnc(NCc2cc(F)cc(F)c2)n1 [Example 135]	> 6.00
Cc1n[nH]cc1-c1ccnc(NC2CCCCCC2)n1 [Example 87]	> 6.00
Cc1n[nH]cc1-c1ccnc(NCCCN(C)C)n1 [Example 118]	> 4.82
CC(C)c1n[nH]cc1-c1ccnc(NCc2c(F)cccc2F)n1 [Example 157]	> 6.00

Data point: Cc1cc(C)n(CCNc2nccc(-c3c[nH]nc3C(C)C)n2)n1 [Example 149] ; pIC50 = > 5.30

The molecule listed as COCC(C)Nc1nccc(-c2c[nH]nc2C(C)C)n1 (centres unmarked) [Example 152] shows pIC50 equal to > 6.30

# pIC50 (molecule: COc1cccc(CNc2nccc(-c3c[nH]nc3C)n2)c1 [Example 107] ) is > 5.00

Looking up Cc1n[nH]cc1-c1ccnc(NCc2ccncc2)n1 [Example 104] , I found its pIC50 recorded as > 5.30

So for Cc1n[nH]cc1-c1ccnc(NC2CCCN(C(=O)OC(C)(C)C)C2)n1 (centres unmarked) [Example 115] , the logged pIC50 turned out to be > 5.00

Short answer for Cc1n[nH]cc1-c1ccnc(NCc2cccnc2)n1 [Example 127] : pIC50 was > 5.00

Query CC(C)c1n[nH]cc1-c1ccnc(NCc2ccc(N(C)C)cc2)n1 [Example 147] yields pIC50 of > 5.30

Reported pIC50 of CCC(C)Nc1nccc(-c2c[nH]nc2C(C)C)n1 (centres unmarked) [Example 171] : > 7.30

The molecule listed as Cc1n[nH]cc1-c1ccnc(NC2CCN(C)CC2)n1 [Example 90] has a reported pIC50 of > 6.30

In plain terms, Cc1n[nH]cc1-c1ccnc(NCC(=O)OC(C)(C)C)n1 [Example 129] has a documented pIC50 of > 4.82

// Cc1n[nH]cc1-c1ccnc(NCCN2CCCCC2)n1 [Example 111] : pIC50 value = > 5.00

// sample Cc1n[nH]cc1-c1ccnc(NCCc2cccnc2)n1 [Example 132] , its pIC50 was > 6.00

GET /value?item= CC(C)c1n[nH]cc1-c1ccnc(NC2CCCCC2)n1 [Example 166] &field=pIC50 returns > 7.30

pIC50 reported for this molecule COc1cc(CNc2nccc(-c3c[nH]nc3C)n2)cc(OC)c1 [Example 133] : > 4.82

# pIC50 (molecule: CC(C)c1n[nH]cc1-c1ccnc(NC2CCc3ccccc32)n1 (centres unmarked) [Example 174] ) is > 7.30

----------
Listing: IC50 of selected compounds
Biological target: hCDK1/B (Homo sapiens, UniProt P06493)
Experiment: hCDK1/B
Format: biochemical
Details: Table 2

Value sought: IC50, system hCDK1/B (Homo sapiens, UniProt P06493), item `Cc1n[nH]cc1-c1ccnc(NCc2cc(F)cc(F)c2)n1` . Result: < 5 µM

Measured IC50 for this entry CC(C)c1n[nH]cc1-c1ccnc(NC2CCCCC2C)n1 (stereo not shown) on hCDK1/B (Homo sapiens, UniProt P06493): < 0.5 µM

Summary: `CC(C)c1n[nH]cc1-c1ccnc(NC2Cc3ccccc3C2)n1` , hCDK1/B (Homo sapiens, UniProt P06493), IC50 = < 0.5 µM

# IC50 measured on hCDK1/B (Homo sapiens, UniProt P06493) for item `CC(C)c1n[nH]cc1-c1ccnc(NC2CCCCC2)n1` = < 0.05 µM

Reading of IC50 for `Cc1n[nH]cc1-c1ccnc(NCc2ccc3c(c2)OCO3)n1` with hCDK1/B (Homo sapiens, UniProt P06493): < 10 µM

Value sought: IC50, system hCDK1/B (Homo sapiens, UniProt P06493), item `Cc1n[nH]cc1-c1ccnc(NC2CCN(c3ccccc3)CC2)n1` . Result: < 5 µM

CC(C)c1n[nH]cc1-c1ccnc(NC(C)c2ccccn2)n1 (stereo not shown) on hCDK1/B (Homo sapiens, UniProt P06493) gives IC50 = < 10 µM

The recorded IC50 with hCDK1/B (Homo sapiens, UniProt P06493) for `CC(C)c1n[nH]cc1-c1ccnc(N[C@H]2CCCc3ccccc32)n1` was < 10 µM

The observed IC50 for CC(C)c1n[nH]cc1-c1ccnc(NC2CCc3ccccc32)n1 (stereo not shown) when tested with hCDK1/B (Homo sapiens, UniProt P06493) stands at < 1 µM

Measured IC50 (hCDK1/B (Homo sapiens, UniProt P06493)), entry `Cc1nnc(CCNc2nccc(-c3c[nH]nc3C(C)C)n2)[nH]1` : < 5 µM
